Data provenance: patent US20030092631A1

Target: IGF-1 (human, UniProt P05019 49-118)
Sequence (P05019 49-118): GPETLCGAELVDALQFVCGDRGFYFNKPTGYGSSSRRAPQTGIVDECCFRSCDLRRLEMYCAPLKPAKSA
Test: cell-based or functional assay
Bridge positions count the residues as written; N and C are the ends. Ends that are not written are not given here.
Experimental Readout: Insulin KIRA (µM)
Answers are plain numbers, in µM.

Example entries and their recorded answers appear below.
| Binder | Experimental Readout | Value Measured |
| --- | --- | --- |
| FECLTSVEALRGCMYG (synthetic peptide) [F1-3] | Insulin KIRA | 66.1 |
| ARCVVDAGGTWYCWAG [F2-P] | Insulin KIRA | 300 |
| WRCVDDLGGFQYCWAG [F2-2] | Insulin KIRA | 93.6 |

Kindly consider the entry below.
May I ask what Insulin KIRA has been recorded for RNCFESVAALRRCMYG (disulfide 3-13, synthetic peptide; also called IGF-F1-1) [F1-1] ?
5.48
